B1: Transitional endoplasmic reticulum ATPase, residues 26 to 106; numbered along this chain, P55072 (parent)
chain: LIVDEAINEDNSVVSLSQPKMDELQLFRGDTVLLKGKKRREAVCIVLSDDTCSDEKIRMNRVVRNNLRVRLGDVISIQPCP

Variants of: B1
Test: abundance fitness (aPCA) (normalised: wild type 0, dead -1); higher = more abundant; growth selection in yeast, the domain comes from the species named
Settings: Homo sapiens
Classes by abundance fitness: band 1 (below -0.2), band 2 (-0.2 to below -0.07), band 3 (-0.07 or more)

Residue change: D10P
Label value: band 3
--
Residue change: V46M
Label value: band 1
--
Residue change: G72K
Label value: band 1
--
Residue change: R70H
Label value: band 2
--
Residue change: T51S
Label value: band 3
--
Residue change: I45V
Label value: band 3
--
Residue change: G29F
Label value: band 2
--
Residue change: R70V
Label value: band 2
--
Residue change: V74I
Label value: band 2
--
Residue change: C80R
Label value: band 3
--
Residue change: V74E
Label value: band 3
--
Residue change: P81D
Label value: band 3
--
Residue change: V74Q
Label value: band 3
--
Residue change: V46I
Label value: band 2
--
Residue change: V69P
Label value: band 1
--
Residue change: V46T
Label value: band 2
--
Residue change: A6S
Label value: band 3
--
Residue change: R40Y
Label value: band 3
--
Residue change: L16P
Label value: band 1
--
Residue change: D30T
Label value: band 3
--
Residue change: G36I
Label value: band 1
--
Residue change: A6R
Label value: band 2
--
Residue change: E5T
Label value: band 2
--
Residue change: S15D
Label value: band 1
--
Residue change: D54V
Label value: band 3
--
Residue change: C52Y
Label value: band 1
--
Residue change: P79R
Label value: band 2
--
Residue change: F27A
Label value: band 3
--
Residue change: E9V
Label value: band 2
--
Residue change: V62D
Label value: band 3
--
Residue change: V3M
Label value: band 2
--
Residue change: N65A
Label value: band 3
--
Residue change: L47Y
Label value: band 2
--
Residue change: T31S
Label value: band 3
--
Residue change: N11Y
Label value: band 2
--
Residue change: D4G
Label value: band 2
--
Residue change: R61W
Label value: band 2
--
Residue change: L26C
Label value: band 1
--
Residue change: E5P
Label value: band 2
--
Residue change: V69Y
Label value: band 1
--
Residue change: C52I
Label value: band 2
--
Residue change: S48M
Label value: band 3
--
Residue change: E41T
Label value: band 2
--
Residue change: E9K
Label value: band 1
